# Experimental protocol: absorption spectrum, light emission spectrum, molecular extinction coefficient and quantum efficiency in solvents
# Assay type: physicochemical
# Test parameters: solvent H2O
Field: φ (quantum efficiency). Provide a value for each of the molecules that follow.
Note: the reply should be a number with no unit written.

Request: What value of φ (quantum efficiency) has been recorded for this entry: CC1(C)C2=C3C=CC(=O)OC3CCN2c2ccc(S(=O)(=O)[O-])cc21.[Na+] (stereo not drawn)
Response: 0.764

Request: And then CC1(C)C2=C3C=C(C(=O)[O-])C(=O)OC3CCN2c2ccc(S(=O)(=O)[O-])cc21.[Na+].[Na+] (stereo not drawn) , what is it?
Response: 0.718

Request: And then CCOC(=O)CCCC(=O)C1=CC2=C3N(CCC2OC1=O)c1ccc2ccccc2c1C3(C)C (stereo not drawn) , what is it?
Response: 0.194

Request: And then CC1(C)C2=C3C=C(C(=O)[O-])C(=O)OC3CCN2c2ccccc21.[Na+] (stereo not drawn) , what is it?
Response: 0.062

Request: And then CC1(C)C2=C3C=C(CC(=O)[O-])C(=O)OC3CCN2c2ccc(S(=O)(=O)[O-])cc21.[Na+].[Na+] (stereo not drawn) , what is it?
Response: 0.91

Request: And then CC1(C)C2=C3C=C(C(=O)CCCC(=O)[O-])C(=O)OC3CCN2c2ccc3cc(S(=O)(=O)[O-])ccc3c21.[Na+].[Na+] (stereo not drawn) , what is it?
Response: 0.405
